Target: Human C5 (Homo sapiens, UniProt P01031)
Construct: purchased Complement Technology
Sequence (P01031 19-1676): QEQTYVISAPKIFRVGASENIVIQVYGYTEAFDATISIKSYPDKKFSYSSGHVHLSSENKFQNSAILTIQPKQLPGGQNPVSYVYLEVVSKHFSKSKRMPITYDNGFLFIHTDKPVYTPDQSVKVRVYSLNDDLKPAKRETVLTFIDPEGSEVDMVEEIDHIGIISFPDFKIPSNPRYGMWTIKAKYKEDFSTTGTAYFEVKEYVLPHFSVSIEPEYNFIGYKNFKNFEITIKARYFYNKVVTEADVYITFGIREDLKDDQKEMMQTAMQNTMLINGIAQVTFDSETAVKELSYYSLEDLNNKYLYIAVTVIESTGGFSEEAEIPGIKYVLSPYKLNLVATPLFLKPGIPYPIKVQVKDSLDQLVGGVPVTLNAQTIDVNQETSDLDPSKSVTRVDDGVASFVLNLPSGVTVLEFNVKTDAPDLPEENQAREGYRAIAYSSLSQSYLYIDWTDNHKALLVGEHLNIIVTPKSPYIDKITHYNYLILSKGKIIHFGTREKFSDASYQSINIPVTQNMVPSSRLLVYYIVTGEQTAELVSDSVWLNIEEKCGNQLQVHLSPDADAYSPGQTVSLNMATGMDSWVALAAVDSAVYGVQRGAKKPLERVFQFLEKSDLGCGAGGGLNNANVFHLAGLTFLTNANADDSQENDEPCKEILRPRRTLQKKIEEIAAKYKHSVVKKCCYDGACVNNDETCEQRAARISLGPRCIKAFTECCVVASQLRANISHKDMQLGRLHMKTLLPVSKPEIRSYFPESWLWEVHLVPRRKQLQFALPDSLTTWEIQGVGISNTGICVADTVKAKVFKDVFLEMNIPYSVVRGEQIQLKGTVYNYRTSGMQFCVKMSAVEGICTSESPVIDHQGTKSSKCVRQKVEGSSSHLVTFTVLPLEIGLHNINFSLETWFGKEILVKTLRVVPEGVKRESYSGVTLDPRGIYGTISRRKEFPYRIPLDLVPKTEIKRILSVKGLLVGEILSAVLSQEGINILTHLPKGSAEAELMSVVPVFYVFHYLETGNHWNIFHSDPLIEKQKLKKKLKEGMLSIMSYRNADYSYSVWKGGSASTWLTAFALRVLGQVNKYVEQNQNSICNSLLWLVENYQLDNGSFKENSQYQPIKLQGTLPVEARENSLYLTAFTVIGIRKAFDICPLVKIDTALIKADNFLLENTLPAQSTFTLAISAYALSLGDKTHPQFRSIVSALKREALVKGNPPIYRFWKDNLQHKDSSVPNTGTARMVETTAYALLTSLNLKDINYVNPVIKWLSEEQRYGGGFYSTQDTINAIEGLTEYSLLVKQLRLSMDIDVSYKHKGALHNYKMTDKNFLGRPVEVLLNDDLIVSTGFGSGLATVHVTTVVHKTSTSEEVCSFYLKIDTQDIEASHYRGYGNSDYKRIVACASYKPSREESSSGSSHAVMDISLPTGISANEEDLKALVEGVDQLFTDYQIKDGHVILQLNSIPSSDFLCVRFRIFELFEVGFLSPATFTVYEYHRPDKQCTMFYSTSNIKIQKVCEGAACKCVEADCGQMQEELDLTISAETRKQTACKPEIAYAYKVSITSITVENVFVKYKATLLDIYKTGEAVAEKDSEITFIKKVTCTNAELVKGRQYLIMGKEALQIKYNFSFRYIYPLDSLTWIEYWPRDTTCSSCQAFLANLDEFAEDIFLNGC
Test: Surface plasmon resonance (SPR), immobilized human C5 (Example 9, Table 18)
Format: binding
Settings: immobilized human C5, equilibrium dissociation constant; read-out: SPR C5 EQ KD
ASSAY ENDPOINT: log10(Kd) (log10 of the value in nM)
The common logarithm of Kd in nM is what is listed.

-- ask Looking for the measured log10(Kd) of `COc1ccc(NC(=O)NCc2ccc(Cn3ccnc3)cc2)cc1OCCCC(C)C` , can you help?
-- reply 2.76

-- ask // repeat for `COc1ccc(NC(=O)NCc2c(F)cccc2OC)cc1OCCCC(C)C` and report
-- reply 2.41

-- ask Follow-up item: `COc1ccc(NC(=O)NCc2ccccc2N)cc1OCCCC(C)C`
-- reply 2.90

-- ask Same question for COc1ccc(NC(=O)NC(CO)c2cccc(CNC(=O)OC(C)(C)C)c2)cc1OCCCC(C)C (centres unmarked) please.
-- reply 2.83

-- ask Another: `CCS(=O)(=O)NCCn1ccc2c(CNC(=O)Nc3ccc(OC)c(OCCCC(C)C)c3)ccnc21`
-- reply 2.92

-- ask Same question, COc1ccc(NC(=O)NC(CO)c2ccc3[nH]ccc3c2)cc1OCCCC(C)C (centres unmarked) this time
-- reply 2.76

-- ask Next up: `COc1ccc(NC(=O)NCc2ccnc3c2ccn3CCCN(C)C)cc1OCCCC(C)C`
-- reply 1.79

-- ask What do you have for `COc1ccc(NC(=O)NCc2cccc3c2ncn3S(=O)(=O)c2ncc[nH]2)cc1OCCCC(C)C` ?
-- reply 2.52

-- ask Entry `COc1ccc(CNC(=O)Nc2ccc(OC)c(OCCCC(C)C)c2)c(OC)c1` please
-- reply 1.01

-- ask Next entry: `COc1ccc(NC(=O)NCc2ccc(N(C)CC(N)=O)cc2)cc1OCCCC(C)C`
-- reply 2.26

-- ask Please answer likewise for COc1ccc(C(CO)NC(=O)Nc2ccc(OC)c(OCCCC(C)C)c2)cc1OC (centres unmarked)
-- reply 2.85

-- ask Another: COc1cccc(C2CCCN2C(=O)Nc2ccc(OC)c(OCCCC(C)C)c2)c1 (centres unmarked)
-- reply 2.99

-- ask Also, `COc1ccc(NC(=O)NCc2cccc(OC)c2O)cc1OCCCC(C)C` please.
-- reply 1.46

-- ask What do you have for `COc1ccc(NC(=O)NCc2cncs2)cc1OCCCC(C)C` ?
-- reply 3.51

-- ask Repeat with `COc1ccc(NC(=O)NCc2cccc3c2ccn3Cc2ccncc2)cc1OCCCC(C)C`
-- reply 1.15

-- ask // repeat for `COc1ccc(NC(=O)NCc2ccnc(OCCN)c2)cc1OCCCC(C)C` and report
-- reply 2.26

-- ask Record: `COc1ccc(NC(=O)NCc2ccc(CN3CCOCC3)cc2)cc1OCCCC(C)C`
-- reply 3.22

-- ask Now this one: COc1ccc(C2CCCN2C(=O)Nc2ccc(OC)c(OCCCC(C)C)c2)cc1 (centres unmarked)
-- reply 2.51

-- ask Now this one: `COc1cnccc1CNC(=O)Nc1ccc(OC)c(OCCCC(C)C)c1`
-- reply 1.68

-- ask Note, next up: `COc1cc(CNC(C)=O)c(NC(=O)NCc2ccnc3[nH]ccc23)cc1OCCCC(C)C`
-- reply 2.50

-- ask Another compound to check: COc1ccc(NC(=O)NC(CO)c2cccc3[nH]ccc23)cc1OCCCC(C)C (centres unmarked)
-- reply 1.77

-- ask Also `COc1ccc(NC(=O)NCc2ccc3c(c2)OCCO3)cc1OCCCC(C)C` ?
-- reply 1.88

-- ask Similarly, `COc1ccc(NC(=O)NCc2ccnc(NCCN(C)C)c2OC)cc1OCCCC(C)C` ?
-- reply 1.40

-- ask Another compound to look at: `COc1cc(CC(=O)O)c(NC(=O)N[C@H](CO)c2ccccc2)cc1OCCCC(C)C`
-- reply 2.64

-- ask Please answer likewise for `COc1ccc(NC(=O)NCc2cccc(N3CCN(C)CC3)c2)cc1OCCCC(C)C`
-- reply 2.02

-- ask Likewise for `COc1ccc(NC(=O)NCc2cccc3c2ccn3CC(=O)N(C)C)cc1OCCCC(C)C` ?
-- reply 1.20

-- ask Then `COc1ccc(NC(=O)NCc2ccnc3c2ccn3CC2=NCCCN2)cc1OCCCC(C)C` ?
-- reply 2.30

-- ask Consider next the compound COc1ccc(NC(=O)NC(CO)c2cccc3[nH]ncc23)cc1OCCCC(C)C (centres unmarked) in the same way.
-- reply 1.91

-- ask Another compound: `CC(C)CCCOc1cc(NC(=O)N[C@@H](CO)c2ccccc2)ccc1N`
-- reply 3.06

-- ask Now consider `COc1ccc(NC(=O)NCc2cc(F)ccc2O)cc1OCCCC(C)C` and answer again.
-- reply 1.84

-- ask Next up: COc1ccc(NC(=O)N[C@@H](CO)c2ccccc2)cc1C(O)CCCC(C)C (some centres unmarked)
-- reply 2.01

-- ask Further, for `COc1cc(CC(=O)N(C)C)c(NC(=O)N[C@@H](CO)c2ccccc2)cc1OCCCC(C)C` ?
-- reply 3.88
